tested_system: GLP-1 receptor (human, UniProt P43220 24-463)
assay_procedure: cell-based or functional assay
Starred links: 1 amine or outer side, 2 acyl side, 3 side chain; linkers in the order of their positions; H or OH if unused. Non-standard residues stand in square brackets, D forms with d. Groups on a side chain read outwards from the residue. Primed or numbered codes have the meaning given here. No end group written: not given here. *: point of attachment. γGlu = O=C(O)[C@H](CCC(=O)[*:2])N[*:1]; Stearoyl = CCCCCCCCCCCCCCCCCC(=O)*; αMeF = C[C@](N)(Cc1ccccc1)C(=O)O; αMeK = C[C@](N)(CCCCN)C(=O)O; αMeS = C[C@](N)(CO)C(=O)O; PEG2′ = not defined here; Aib = CC(C)(N)C(=O)O
measurement_name: Primary assay EC50 (cAMP), Mean pM GLP-1R (pM)

// below: answered binders
binder: H[Aib]EGS[αMeF]TSDVSK([PEG2′-PEG2′-PEG2′-Stearoyl])YLEGEAAEE[αMeF]IA[αMeF]VVEGG-NH2 [SEQ ID NO 62]
result_number: 1.9

binder: H[Aib]EGS[αMeF]TSDV[αMeS]S[αMeF]LEGEAAK([PEG2′-PEG2′-γGlu-Stearoyl])EFIA[αMeF]VV[αMeK]GG-NH2 [SEQ ID NO 48]
result_number: 6.1

binder: H[Aib]EGS[αMeF]TSDV[αMeS]S[αMeF]LEGEAAK([PEG2′-PEG2′-γGlu-Stearoyl])E[αMeF]IA[αMeF]VV[αMeK]GG-NH2 [SEQ ID NO 33]
result_number: 100

P: HXEGTFTSDVXSYLEGQAAKEFIAWLVKGR (Aib 2; Aib 11; C-terminal amide) [SEQ ID NO 22]
Q: H[Aib]EGS[αMeF]TSDVSK([PEG2′-PEG2′-γGlu-Stearoyl])YLEGEAA[Aib]E[αMeF]IA[αMeF]VVEGG-NH2 [SEQ ID NO 59]
// pick larger Primary assay EC50 (cAMP), Mean pM GLP-1R from pair: P vs Q Refer to your chosen item by its label in the answer. Q
(Q: 211 pM, P: 118 pM)

A: H[Aib]EGS[αMeF]TSDVSK([PEG2′-PEG2′-γGlu-Stearoyl])YLEGEAAKE[αMeF]IA[αMeF]VVEGG-NH2 [SEQ ID NO 57]
B: H[Aib]EGS[αMeF]TSDVSS[αMeF]LEGEAAK([PEG2′-PEG2′-PEG2′-Stearoyl])E[αMeF]IA[αMeF]VV[αMeK]GG-NH2 [SEQ ID NO 52]
Param metric = Primary assay EC50 (cAMP), Mean pM GLP-1R; output whichever of A , B has the minimum value. Refer to your chosen item by its label in the answer. B
